Target: CDK5/P25 (Homo sapiens, UniProt Q00535)
Sequence (Q00535 whole entry): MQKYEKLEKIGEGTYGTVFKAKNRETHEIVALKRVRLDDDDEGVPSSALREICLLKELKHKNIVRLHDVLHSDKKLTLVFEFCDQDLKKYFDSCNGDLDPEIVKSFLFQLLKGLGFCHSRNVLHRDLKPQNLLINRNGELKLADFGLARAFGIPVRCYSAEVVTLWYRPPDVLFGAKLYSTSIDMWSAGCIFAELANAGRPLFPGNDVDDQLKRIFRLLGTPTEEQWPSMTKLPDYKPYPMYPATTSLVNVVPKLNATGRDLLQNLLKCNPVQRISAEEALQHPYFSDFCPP
Sequence (Q15078 99-307 partner limits assumed): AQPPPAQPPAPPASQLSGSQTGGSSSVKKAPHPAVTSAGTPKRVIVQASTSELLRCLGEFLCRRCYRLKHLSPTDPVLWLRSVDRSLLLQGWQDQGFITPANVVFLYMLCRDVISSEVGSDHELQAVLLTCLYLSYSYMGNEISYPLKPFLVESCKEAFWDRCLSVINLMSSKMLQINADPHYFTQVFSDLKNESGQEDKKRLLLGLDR
Test: Off-target kinase panel, ZLYTE: CDK5/P25
Assay type: biochemical
Conditions: read-out: Estimated IC50 (uM) CDK5/P25
Readout kind: IC50 (µM)
# output: bare number, implied unit µM

Exam item: State its IC50: O=C1NC(=O)C2(CCN(c3cc(Cl)cc4[nH]ncc34)CC2)N1 [CC-1]
Marked response: 1.2

* * *

Molecular target: CLK2 (Homo sapiens)
Sequence (P49760 whole entry): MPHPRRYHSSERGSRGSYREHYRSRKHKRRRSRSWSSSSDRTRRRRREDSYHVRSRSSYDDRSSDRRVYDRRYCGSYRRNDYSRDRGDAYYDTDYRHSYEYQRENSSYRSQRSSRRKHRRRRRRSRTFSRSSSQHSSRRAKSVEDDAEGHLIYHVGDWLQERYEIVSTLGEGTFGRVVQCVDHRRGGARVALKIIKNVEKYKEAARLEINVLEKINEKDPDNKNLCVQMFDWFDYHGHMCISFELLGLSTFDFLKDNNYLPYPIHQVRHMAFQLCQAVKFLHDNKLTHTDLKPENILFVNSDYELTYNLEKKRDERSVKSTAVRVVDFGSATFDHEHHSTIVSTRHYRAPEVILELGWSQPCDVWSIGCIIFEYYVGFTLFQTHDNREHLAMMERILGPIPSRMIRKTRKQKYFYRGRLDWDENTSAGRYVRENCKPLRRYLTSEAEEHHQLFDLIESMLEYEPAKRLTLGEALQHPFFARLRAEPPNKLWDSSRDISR
Test: Off-target kinase panel, ZLYTE: CLK2
Assay type: biochemical
Settings: read-out: Estimated IC50 (uM) CLK2
Readout kind: IC50 (µM)

P. C[C@@H]1CN(c2cc(Br)cc3[nH]ncc23)CC[C@]12NC(=O)NC2=O (single isomer, unassigned) [Compound 1-1]
Q. O=C1NC(=O)C2(CCN(c3cc(Cl)cc4[nH]ncc34)CC2)N1 [CC-1]
Exam item: Just tell me: smaller IC50 value, P or Q ? Use the label to indicate which entry you chose.
Marked response: Q
(Q: 0.35 µM, P: 0.73 µM)

* * *

Biological target: MELK (Homo sapiens, UniProt Q14680)
Sequence (Q14680 whole entry): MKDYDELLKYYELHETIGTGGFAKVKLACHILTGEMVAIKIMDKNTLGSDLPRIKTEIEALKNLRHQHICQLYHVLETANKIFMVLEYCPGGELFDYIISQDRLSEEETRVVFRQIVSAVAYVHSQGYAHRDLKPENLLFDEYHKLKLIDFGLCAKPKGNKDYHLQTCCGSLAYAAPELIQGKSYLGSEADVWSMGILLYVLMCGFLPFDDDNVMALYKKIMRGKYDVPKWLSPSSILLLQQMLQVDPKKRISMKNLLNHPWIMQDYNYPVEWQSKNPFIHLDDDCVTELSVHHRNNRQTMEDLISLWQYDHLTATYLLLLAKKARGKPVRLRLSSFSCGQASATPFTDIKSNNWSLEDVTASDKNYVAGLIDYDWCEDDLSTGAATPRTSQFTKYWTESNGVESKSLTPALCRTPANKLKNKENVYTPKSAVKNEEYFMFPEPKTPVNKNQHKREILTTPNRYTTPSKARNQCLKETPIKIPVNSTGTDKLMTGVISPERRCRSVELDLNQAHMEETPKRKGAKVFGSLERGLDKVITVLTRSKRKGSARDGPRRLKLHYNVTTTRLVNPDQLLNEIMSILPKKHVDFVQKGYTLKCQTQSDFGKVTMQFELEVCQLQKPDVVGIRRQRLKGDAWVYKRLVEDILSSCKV
Test: Off-target kinase panel, ZLYTE: MELK
Format: biochemical
Conditions: read-out: Estimated IC50 (uM) MELK
From the text: The activity data was obtained in a panel of 265 and 264 for compounds 1-1 and CC-1, respectively, using the ZLYTE and ADAPTA assay methods indicated in the table below. The ZLYTE biochemical assay employs a fluorescence-based, coupled-enzyme format and is based on the differential sensitivity of phosphorylated and non-phosphorylated peptides to proteolytic cleavage. […] Both cleaved and uncleaved FRET-peptides contribute to the fluorescence signals and therefore to the Emission Ratio. […]
Readout kind: IC50 (µM)
# output: bare number, implied unit µM

Exam item: State its IC50: O=C1NC(=O)C2(CCN(c3cc(Cl)cc4[nH]ncc34)CC2)N1
Marked response: 1.4

* * *

Biological target: IDO1 (Homo sapiens, UniProt P14902)
Sequence (P14902 whole entry): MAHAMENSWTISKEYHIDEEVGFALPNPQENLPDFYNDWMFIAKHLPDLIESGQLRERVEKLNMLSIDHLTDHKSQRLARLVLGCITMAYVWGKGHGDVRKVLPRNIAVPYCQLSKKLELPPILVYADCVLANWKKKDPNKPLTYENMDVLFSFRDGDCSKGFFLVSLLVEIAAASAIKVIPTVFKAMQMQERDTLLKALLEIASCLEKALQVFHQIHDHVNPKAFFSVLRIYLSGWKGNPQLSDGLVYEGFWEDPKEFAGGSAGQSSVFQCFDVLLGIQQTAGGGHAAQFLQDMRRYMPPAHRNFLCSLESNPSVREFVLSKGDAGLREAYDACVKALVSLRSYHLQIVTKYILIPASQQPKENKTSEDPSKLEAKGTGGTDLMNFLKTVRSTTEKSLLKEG
Experiment: IDO1 Human Whole Blood Assay (D)
Type: cell-based
Set-up: from tissue; host or cells: human whole blood from healthy donors, stimulated with LPS and IFNγ
Conditions: LPS and IFNγ, 18 h, read-out: IDO WB IC50, nM (D)
Method: Compounds to be tested were serially diluted in ten 3-fold steps in DMSO starting from 10 mM. […] On day 2 isotope labeled standard of kynurenine and tryptophan was made in water at 10× concentration and 30 μL was added to the blood sample at 3 μM final concentration. […] 20 μL of supernatant was carefully transferred to a 384 well plate contain 40 μL of 0.1% formic acid in water and analyzed by LC/MS/MS. […]
Readout kind: IC50 (nM)

A. C[C@@H]1CN(c2cc(Br)cc3[nH]ncc23)CC[C@]12NC(=O)NC2=O (single isomer, unassigned)
B. O=C1NC(=O)C2(CCN(c3cc(Cl)cc4[nH]ncc34)CC2)N1
Exam item: Name the one with the greater IC50 value, either A or B as given. Use the label to indicate which entry you chose.
Marked response: B

* * *

Target: LRRK2 (G2019S) (Homo sapiens, UniProt Q5S007, G2019S)
Sequence (Q5S007 whole entry G2019S): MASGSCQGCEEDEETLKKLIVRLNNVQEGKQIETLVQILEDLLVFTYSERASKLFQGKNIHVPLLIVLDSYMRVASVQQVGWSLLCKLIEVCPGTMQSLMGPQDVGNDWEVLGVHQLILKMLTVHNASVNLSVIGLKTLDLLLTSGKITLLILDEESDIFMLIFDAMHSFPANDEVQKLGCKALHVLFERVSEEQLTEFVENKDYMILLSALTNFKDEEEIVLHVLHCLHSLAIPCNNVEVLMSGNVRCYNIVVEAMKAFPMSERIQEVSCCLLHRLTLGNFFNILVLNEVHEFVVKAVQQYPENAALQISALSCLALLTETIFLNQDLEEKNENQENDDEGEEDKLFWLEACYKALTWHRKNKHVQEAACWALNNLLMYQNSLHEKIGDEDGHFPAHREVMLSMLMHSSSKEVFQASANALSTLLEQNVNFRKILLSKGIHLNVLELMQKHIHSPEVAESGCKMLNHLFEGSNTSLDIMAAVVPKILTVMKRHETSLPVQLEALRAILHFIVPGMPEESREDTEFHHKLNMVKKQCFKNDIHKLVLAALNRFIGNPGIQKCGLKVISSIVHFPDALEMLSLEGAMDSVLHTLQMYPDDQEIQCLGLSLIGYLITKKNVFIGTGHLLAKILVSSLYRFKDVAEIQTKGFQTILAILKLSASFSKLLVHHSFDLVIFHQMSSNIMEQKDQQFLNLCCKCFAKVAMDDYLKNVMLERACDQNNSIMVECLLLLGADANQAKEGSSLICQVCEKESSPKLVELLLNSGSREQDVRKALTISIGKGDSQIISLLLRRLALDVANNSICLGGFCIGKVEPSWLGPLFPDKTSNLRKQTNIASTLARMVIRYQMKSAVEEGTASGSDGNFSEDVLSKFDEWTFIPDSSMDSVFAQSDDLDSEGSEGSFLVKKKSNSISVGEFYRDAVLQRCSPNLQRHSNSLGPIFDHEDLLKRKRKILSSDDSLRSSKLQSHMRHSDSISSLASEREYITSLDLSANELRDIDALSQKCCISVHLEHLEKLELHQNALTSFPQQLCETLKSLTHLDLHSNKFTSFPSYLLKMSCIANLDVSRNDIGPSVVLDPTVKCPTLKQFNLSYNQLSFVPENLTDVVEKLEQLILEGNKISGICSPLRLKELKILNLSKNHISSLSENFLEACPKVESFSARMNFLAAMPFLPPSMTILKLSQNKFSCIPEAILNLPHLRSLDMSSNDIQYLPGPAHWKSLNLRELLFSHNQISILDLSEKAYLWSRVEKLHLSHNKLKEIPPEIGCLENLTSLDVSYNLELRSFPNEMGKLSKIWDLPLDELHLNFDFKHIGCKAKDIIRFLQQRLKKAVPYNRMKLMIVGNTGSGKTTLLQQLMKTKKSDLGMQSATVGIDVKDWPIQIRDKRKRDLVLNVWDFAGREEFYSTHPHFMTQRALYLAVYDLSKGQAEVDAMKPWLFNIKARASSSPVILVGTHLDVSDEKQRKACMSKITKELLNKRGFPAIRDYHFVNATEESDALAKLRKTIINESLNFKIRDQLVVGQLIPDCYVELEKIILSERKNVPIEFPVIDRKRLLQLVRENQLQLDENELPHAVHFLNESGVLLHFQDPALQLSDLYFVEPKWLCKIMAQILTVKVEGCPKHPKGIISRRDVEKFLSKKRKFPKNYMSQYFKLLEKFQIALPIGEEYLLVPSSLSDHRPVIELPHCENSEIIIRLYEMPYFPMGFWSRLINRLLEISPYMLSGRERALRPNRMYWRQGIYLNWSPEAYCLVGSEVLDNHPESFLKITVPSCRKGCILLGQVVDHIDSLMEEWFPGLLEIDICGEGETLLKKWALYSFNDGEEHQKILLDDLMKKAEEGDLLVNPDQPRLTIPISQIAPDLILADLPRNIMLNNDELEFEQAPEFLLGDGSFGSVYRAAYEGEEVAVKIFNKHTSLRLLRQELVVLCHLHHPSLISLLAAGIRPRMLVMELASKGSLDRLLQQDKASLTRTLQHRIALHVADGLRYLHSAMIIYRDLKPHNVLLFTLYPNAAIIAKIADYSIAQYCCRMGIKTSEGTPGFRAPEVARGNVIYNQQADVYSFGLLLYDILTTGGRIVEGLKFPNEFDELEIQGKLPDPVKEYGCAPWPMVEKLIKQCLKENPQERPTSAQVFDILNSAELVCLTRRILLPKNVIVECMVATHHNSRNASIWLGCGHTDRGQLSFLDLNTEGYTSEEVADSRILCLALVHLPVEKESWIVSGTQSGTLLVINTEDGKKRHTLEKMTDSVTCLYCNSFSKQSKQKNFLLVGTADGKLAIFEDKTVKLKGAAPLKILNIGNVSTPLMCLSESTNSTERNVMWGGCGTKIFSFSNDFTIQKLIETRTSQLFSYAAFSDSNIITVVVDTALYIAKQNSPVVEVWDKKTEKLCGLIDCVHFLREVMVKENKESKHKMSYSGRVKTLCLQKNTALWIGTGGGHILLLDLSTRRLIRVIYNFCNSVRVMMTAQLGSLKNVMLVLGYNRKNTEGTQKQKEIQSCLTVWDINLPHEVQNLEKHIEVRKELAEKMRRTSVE
Test: Off-target kinase panel, ADAPTA: LRRK2 (G2019S)
Type: biochemical
Conditions: read-out: Estimated IC50 (uM) LRRK2 (G2019S)
Readout kind: IC50 (µM)
# output: bare number, implied unit µM

Exam item: State its IC50: O=C1NC(=O)C2(CCN(c3cc(Cl)cc4[nH]ncc34)CC2)N1
Marked response: 0.94
